Test Summary: Cytotoxicity: viability of M17 cells
Conditions Used: human, M17 neuroblastoma cells, Cytotoxicity (% viable at 1 and 10 uM), test compound 10 uM
Observation Type: viability at 10 uM (%)
One number for each entry, in %.

The examples below pair each entry with its known result.
compound=CCN(CC)C(=O)Cn1cnc2c(O)c(Cl)cc(Cl)c2c1=O result_units=% measured=104
compound=O=c1c2c(Cl)cc(Cl)c(O)c2ncn1C1CC1 result_units=% measured=72
compound=O=c1c2c(Cl)cc(I)c(O)c2ncn1Cc1ccccn1 result_units=% measured=99.2
compound=O=c1c2cccc(O)c2ncn1Cc1ccncc1 result_units=% measured=104
compound="CCC(C)Cn1cnc2c(O)cccc2c1=O (stereo not drawn)" result_units=% measured=47.2
compound=CCc1cnc2c(O)cccn2c1=S result_units=% measured=73.7

Please state viability at 10 uM for every compound in the list that follows.
1. CCN(CC)C(=O)Cn1cnc2c(O)c(I)ccc2c1=O
2. CC(C)c1cnc2c(O)c(I)ccn2c1=O
3. O=C1c2ccccc2C(=O)N1CCn1cnc2c(O)c(I)ccc2c1=O
4. O=c1c2c(Cl)cc(Cl)c(O)c2ncn1Nc1ccc(F)cc1F
5. O=c1c2c(Cl)cc(Cl)c(O)c2ncn1CCNC1CC1
6. O=c1c2cccc(O)c2ncn1Cc1ccccn1
7. CCCn1cnc2c(O)ccc(Cl)c2c1=O

Outgoing:
[98.7, 44.2, 105, 83.1, 96.2, 96, 79.4]

###

Test Summary: Cytotoxicity: viability of M17 cells
Conditions Used: human, M17 neuroblastoma cells, Cytotoxicity (% viable at 1 and 10 uM), test compound 1 uM
Observation Type: viability at 1 uM (%)
Numbers only, in %.

compound=O=c1c2c(Cl)cc(Cl)c(O)c2ncn1Nc1ccc(F)cc1F measured=105
compound=Cn1c(-n2cnc3c(O)c(Cl)cc(Cl)c3c2=O)nc2ccccc21 measured=107
compound=O=c1c2c(Cl)cc(Cl)c(O)c2ncn1Cc1nc2ccccc2s1 measured=111

# map each compound to its viability at 1 uM
1. CCC(C)Cn1cnc2c(O)c(I)ccc2c1=O (stereo not drawn)
2. CCn1c(CN(C)C)nc2c(O)c(Cl)cc(Cl)c2c1=O.Cl
3. O=c1c2c(Cl)ccc(O)c2ncn1Cc1ccccn1

Outgoing:
1: 42.8; 2: 99.2; 3: 93.6

I need viability at 1 uM for every entry listed below, if you could help.
1. O=c1c2ccc(I)c(O)c2ncn1-c1ccc(F)cc1F
2. O=c1c(CCCC2CCSS2)cnc2c(O)cccn12 (stereo not drawn)
3. CCCCn1cnc2c(O)c(Cl)cc(Cl)c2c1=O
4. Br.CN(C)Cc1nc2c(O)c(Cl)cc(Cl)c2c(=O)[nH]1
5. Cc1noc(C)c1Cn1cnc2c(O)c(Cl)cc(Cl)c2c1=O
6. CCN(CC)CCNC(=O)c1cnc2c(O)cccn2c1=O

Outgoing:
1. 90.3
2. 106
3. 105
4. 97.4
5. 104
6. 115

###

Test Summary: Cytotoxicity: viability of M17 cells
Conditions Used: human, M17 neuroblastoma cells, Cytotoxicity (% viable at 1 and 10 uM), test compound 10 uM
Observation Type: viability at 10 uM (%)
Give bare numbers, in %.

Past entries and their recorded results:
compound="O=c1c2c(Cl)cc(Cl)c(O)c2ncn1-c1ccccn1 [drawing 171]" observation_type="viability at 10 uM" result_units=% measured=80.5
compound=O=c1c2ccc(I)c(O)c2ncn1CCNS(=O)(=O)c1ccc(F)cc1 observation_type="viability at 10 uM" result_units=% measured=43
compound=O=c1c2cccc(O)c2ncn1Cc1ccc(F)cc1 observation_type="viability at 10 uM" result_units=% measured=60.5
compound=Cn1c(-n2cnc3c(O)c(Cl)cc(Cl)c3c2=O)nc2ccccc21 observation_type="viability at 10 uM" result_units=% measured=94.9
compound=O=c1c2c(Cl)cc(Cl)c(O)c2nc2n1CCC2 observation_type="viability at 10 uM" result_units=% measured=93.9
compound=O=c1c2c(Cl)cc(Cl)c(O)c2ncn1CC1CC1 observation_type="viability at 10 uM" result_units=% measured=76.8
compound=O=c1c2c(Cl)cc(Cl)c(O)c2ncn1Cc1nc2ccccc2s1 observation_type="viability at 10 uM" result_units=% measured=80.9
compound=CCCCc1cnc2c(O)c(I)ccn2c1=O observation_type="viability at 10 uM" result_units=% measured=58.7

Batch of 2 compounds: report viability at 10 uM for each.
1. O=c1c2c(Cl)cc(Cl)c(O)c2ncn1Cc1nccs1
2. O=c1c2cccc(O)c2ncn1Cc1nc2ccccc2[nH]1

Outgoing:
[99.8, 108]

// each compound listed below needs its viability at 10 uM
1. O=c1c2c(Cl)cc(Cl)c(O)c2ncn1CC1CCN(Cc2ccccc2)CC1
2. O=c1c2cccc(O)c2ncn1CC1CC1

Outgoing:
1: 83.4; 2: 111

Data origin, for the record: patent US20100069393A1
